Conditions: in n-butanol, 323.15 K
value.kind: solubility (mole fraction)
Answer as a number with no unit attached.

Query: Field request: solubility (mole fraction) | item: "N[C@@H](Cc1ccccc1)C(=O)O"
Result: 0.000104

---

Details: in acetonitrile, 293.15 K
value.kind: solubility (mole fraction)
Answer as a number with no unit attached.

Query: Field request: solubility (mole fraction) | item: "N[C@@H](Cc1ccccc1)C(=O)O"
Result: 1.12e-05

---

Conditions: in methanol, 323.15 K
value.kind: solubility (mole fraction)
Answer as a number with no unit attached.

Query: Field request: solubility (mole fraction) | item: "N[C@@H](Cc1ccccc1)C(=O)O"
Result: 0.00126

---

Details: in 1,4-dioxane, 308.15 K
value.kind: solubility (mole fraction)

Query: Field request: solubility (mole fraction) | item: "N[C@@H](Cc1ccccc1)C(=O)O"
Result: 3.9e-05

---

Conditions: in acetone, 323.15 K
value.kind: solubility (mole fraction)
Answer as a number with no unit attached.

Query: Field request: solubility (mole fraction) | item: "N[C@@H](Cc1ccccc1)C(=O)O"
Result: 0.000375

---

Conditions: in water, 318.15 K
value.kind: solubility (mole fraction)
Answer as a number with no unit attached.

Query: Field request: solubility (mole fraction) | item: "N[C@@H](Cc1ccccc1)C(=O)O"
Result: 0.00404

---

Conditions: in methyl acetate, 288.15 K
value.kind: solubility (mole fraction)

Query: Field request: solubility (mole fraction) | item: "N[C@@H](Cc1ccccc1)C(=O)O"
Result: 8.5e-06

---

Conditions: in n-propanol, 318.15 K
value.kind: solubility (mole fraction)
Answer as a number with no unit attached.

Query: Field request: solubility (mole fraction) | item: "N[C@@H](Cc1ccccc1)C(=O)O"
Result: 0.000141

---

Details: in ethyl acetate, 298.15 K
value.kind: solubility (mole fraction)
Answer as a number with no unit attached.

Query: Field request: solubility (mole fraction) | item: "N[C@@H](Cc1ccccc1)C(=O)O"
Result: 2.06e-05

---

Conditions: in acetone, 288.15 K
value.kind: solubility (mole fraction)
Answer as a number with no unit attached.

Query: Field request: solubility (mole fraction) | item: "N[C@@H](Cc1ccccc1)C(=O)O"
Result: 0.000104

---

Conditions: in methyl acetate, 323.15 K
value.kind: solubility (mole fraction)
Answer as a number with no unit attached.

Query: Field request: solubility (mole fraction) | item: "N[C@@H](Cc1ccccc1)C(=O)O"
Result: 6.4e-05

---

Settings: in ethanol, 308.15 K
value.kind: solubility (mole fraction)

Query: Field request: solubility (mole fraction) | item: "N[C@@H](Cc1ccccc1)C(=O)O"
Result: 0.000191

---

Conditions: in methanol, 303.15 K
value.kind: solubility (mole fraction)
Answer as a number with no unit attached.

Query: Field request: solubility (mole fraction) | item: "N[C@@H](Cc1ccccc1)C(=O)O"
Result: 0.000996

---

Details: in acetonitrile, 308.15 K
value.kind: solubility (mole fraction)
Answer as a number with no unit attached.

Query: Field request: solubility (mole fraction) | item: "N[C@@H](Cc1ccccc1)C(=O)O"
Result: 2.4e-05

---

Conditions: in 1,4-dioxane, 328.15 K
value.kind: solubility (mole fraction)
Answer as a number with no unit attached.

Query: Field request: solubility (mole fraction) | item: "N[C@@H](Cc1ccccc1)C(=O)O"
Result: 0.000118
